Biological target: HLA-B0702 (human)
Assay: competition with 125I-labelled probe peptide on purified soluble HLA
Conditions: remark: other sources report otherwise
Quantity Measured: Ki (nM)
Numbers only, in nM.

// below: answered binders
Binder	Quantity Measured	Reported Value
LPRRGPRLGV (modifications not checked)	Ki	3
APLGGAARAL (modifications not checked)	Ki	1
APTLWARMIL (modifications not checked)	Ki	1

As a next step, examine the binder that follows.
# lookup: Ki of QPRGRRQPI (modifications not checked)
1
